System: 5F cells (5F HSPCs)
Assay: Primary screen of Cayman epigenetic library in 5F cells, stromal-free T cell differentiation (proT readout)
Assay type: cell-based, human
Conditions: 5F cells, e.g., at 500 nM; control cells 11.60%
Assign labels as follows, please: MET for CD5+ CD7+ % below 30%; NOT MET for CD5+ CD7+ % equal to or exceeding 30%.

INSERT INTO assay_data (molecule, class_label) VALUES
  ('CN(C)c1ccc(C(=O)NCCCCCC(=O)NO)cc1 [CAY10398]', 'NOT MET'),
  ('O=C(CCCCCN1C(=O)c2cccc3cccc(c23)C1=O)NO [Scriptaid]', 'MET'),
  ('CC(C)C(C(=O)Nc1ccc(C(=O)NO)cc1)c1ccccc1 (stereo not drawn) [s-HDAC-42]', 'NOT MET'),
  ('CCCCc1nc2cc(/C=C/C(=O)NO)ccc2n1CCN(CC)CC [SB939]', 'NOT MET'),
  ('Cc1cc(Nc2ccc(NC(=O)c3ccc(Nc4ccnc5ccccc45)cc3)cc2)nc(N)n1 [SGI-1027]', 'MET'),
  ('O=C(CCCCCCC(=O)Nc1ccccc1)NO [SAHA, suberoylanilide hydroxamic acid]', 'NOT MET'),
  ('Cn1cc(/C=C/C(=O)c2cccc(F)c2)cc1/C=C/C(=O)NO [MC1568]', 'MET'),
  ('O=C(CCCCCCC(=O)Nc1ccc(I)cc1)NO [4-iodo-SAHA]', 'MET'),
  ('CNCc1ccc(-c2[nH]c3cc(F)cc4c3c2CCNC4=O)cc1 [Rucaparib]', 'NOT MET'),
  ('O=C(CCCCCCC(=O)Nc1cccnc1)NO [Pyroxamide]', 'MET'),
  ('COc1cc2c(NC3CCN(C)CC3)nc(N3CCCN(C)CC3)nc2cc1OCCCN(C)C [UNC0224]', 'MET'),
  ('COCCCn1c(N)c(C(=O)NC2CCCC2)c2nc3ccccc3nc21 [CAY10591]', 'MET');
